# experiment: qHTS of pediatric cancer cell lines to identify multiple opportunities for drug repurposing: Confirmatory screen for Rh18 cells (AID 1347125);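 note: cells exposed to compound for 48 h; nearly all actives have a fitted effect of over 55% in size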; note: potency is the fitted concentration of half-maximal effect
# conditionSummary: Rh18 rhabdomyosarcoma cells, viability; series mostly up to 45.9 µM
Inconclusive results are not listed. The source made the active and inactive calls. Calls come from the whole dose curve; as a rule, active = well fitted cell-killing curve with a large enough effect; inconclusive = small, poorly fitted or top-dose-only effect, or effect the other way; inactive = flat fitted curve, though single readings scatter.
reportedProperty: Potency

Would you please look over these solved cases?
# compound, reportedProperty, testValue
data = [
    ("CC(C)c1cc(C(=O)N2Cc3ccc(CN4CCN(C)CC4)cc3C2)c(O)cc1O", "Potency", "0.657 µM (active)"),
    ("C#Cc1cccc(Nc2ncnc3cc(OC)c(OCCCCCCC(=O)NO)cc23)c1", "Potency", "1.91 µM (active)"),
    ("Cc1nc(N)ncc1-c1nc(N2CCOCC2)c2sc(C(C)(C)O)cc2n1", "Potency", "1.65 µM (active)"),
    ("NC(=O)Nc1cc(-c2cccc(F)c2)sc1C(=O)N[C@H]1CCCNC1", "Potency", "6.57 µM (active)"),
    ("Cc1ccc2nc(NC(=O)CSc3nc4c(c(=O)n3-c3ccccc3)SCC4)sc2c1", "Potency", "inactive"),
    ("COc1cccc(-c2ccc(NC(=O)C3=C(C(=O)O)CCC3)c(F)c2)c1", "Potency", "inactive"),
]

Quote Potency reported for CC1(C)O[C@@H]2C[C@@H]3[C@H]4C[C@@H](F)C5=CC(=O)C=C[C@]5(C)[C@@]4(F)[C@@H](O)C[C@]3(C)[C@]2(C(=O)CO)O1 please.
inactive

* * *

# Test system: FAB9
# experiment: qHTS profiling for inhibitors of Plasmodium falciparum proliferation (AID 504749); note: nearly all actives have a fitted effect of over 60% in size
# conditionSummary: P. falciparum in erythrocytes, SYBR Green DNA, 72 h; series mostly up to 28.7 µM
Records with an inconclusive call do not appear. Calls of active or inactive are those of the source. The call rests on the fitted dose curve; in most records, active means well fitted inhibition curve with a large enough effect; inconclusive means small, poorly fitted or top-dose-only effect; inactive means flat fitted curve, though single readings scatter.
The categories you may choose from are active, inactive

What classification did CC[C@H]1CN2CCc3cc(OC)c(OC)cc3[C@H]2C[C@@H]1C[C@@H]1NCCc2cc(OC)c(OC)cc21 end up with in this test?
active

What classification did CN1c2cc(O)c(N=NC(N)=O)cc2CC1S(=O)(=O)O (stereo not given) end up with in this test?
inactive

What classification did O=c1[nH]c(=O)n(C2CCCO2)cc1F (stereo not given) end up with in this test?
inactive

What classification did Nc1ccn([C@@H]2CS[C@H](CO)O2)c(=O)n1 end up with in this test?
inactive

What classification did CC=CC1=C(C(=O)O)N2C(=O)[C@H](NC(=O)[C@H](N)c3ccc(O)cc3)[C@@H]2SC1 end up with in this test?
inactive

* * *

# Test system: Zika virus NS2B-NS3 protease (linked)
# experiment: 384 well plate NINDS AMC confirmatory qHTS for Zika virus inhibitors (AID 1347163); note: nearly all actives have a fitted effect of over 50% in size
# conditionSummary: Recombinant NS2B-NS3 protease, Ac-VKTGKR-AMC fluorescence; series mostly up to 100 µM
# Source text: Description: Assay Submitters (PI): Avindra Nath, Ph.D., National Institute of Neurological Disorders and Stroke (NINDS), Bethesda, MD Radhakrishnan Padmanabhan, Ph.D., Georgetown University (GU), Washington D.C. Zika Virus causes congenital defects, including microcephaly and is associated with Guillain-Barre syndrome, eningoencephalitis and myelitis in infected adult. […]
Inconclusive results are not listed. Calls of active or inactive are those of the source. Calls come from the whole dose curve; as a rule, active = well fitted inhibition curve with a large enough effect; inconclusive = small, poorly fitted or top-dose-only effect; inactive = no such curve, though single readings can be large or run the other way.
The categories you may choose from are label 1 (active), label 0 (inactive)

# compound, group
data = [
    ("O=C(Nc1cc(C(F)(F)F)cc(C(F)(F)F)c1)c1cc(Cl)ccc1O", "label 0"),
]

What classification did CC(C)c1ccccc1Cc1cc(C(=O)Nc2ccc(S(=O)(=O)c3ccccc3C(C)(C)C)cc2)c(O)c(O)c1O end up with in this test?
label 1

What classification did O=c1c2ccccc2nc2n1CCc1c-2[nH]c2ccccc12 end up with in this test?
label 0

What classification did COc1cc(C(=O)NS(=O)(=O)c2ccccc2C)ccc1Cc1cn(C)c2ccc(NC(=O)OC3CCCC3)cc12 end up with in this test?
label 1

What classification did Cc1cc(N2CCOCC2)cc2[nH]c(-c3c(NC[C@@H](O)c4cccc(Cl)c4)cc[nH]c3=O)nc12 end up with in this test?
label 0

What classification did O=C(O)Cn1nnc(-c2cc(N3CCC(Oc4cc(F)ccc4Br)CC3)no2)n1 end up with in this test?
label 0

What classification did CCOC(=O)C1=C(C)NC2=C(C(=O)CC(C)(C)C2)C1c1ccc(-c2ccccc2)cc1 (centres undefined) end up with in this test?
label 0

What classification did Cc1cc(CN2CCN(c3c(Br)cnc4nc(-c5ccc(N6CCN(C)CC6)cc5)[nH]c34)CC2)no1 end up with in this test?
label 0

What classification did N#Cc1c(O)c2c(-c3ccc(-c4ccccc4O)cc3)csc2[nH]c1=O end up with in this test?
label 1

* * *

# experiment: Quantitative High-Throughput drug screen in 47 multiple myeloma cell lines against the NCATS MIPE library collection: PE2_PLB cell viability assay (AID 1919869); note: potency is the fitted concentration of half-maximal effect; nearly all actives have a fitted effect of over 35% in size
# conditionSummary: PE2_PLB myeloma cells viability, ATP luminescence, 48 h; series mostly up to 45.8 µM
Records with an inconclusive call do not appear. Active and inactive are the calls of the source. Calls come from the whole dose curve; as a rule, active = well fitted cell-killing curve with a large enough effect; inconclusive = small, poorly fitted or top-dose-only effect, or effect the other way; inactive = no such curve, though single readings can be large or run the other way.
Below: a set of entries, each annotated with reported Potency.

# smilesStructure, Potency
measured = [
    ("CC(C)c1nn(-c2c(Cl)cccc2Cl)c2nc(Cc3ccc(OCCO)cc3)[nH]c(=O)c12", "0.0743 µM (active)"),
    ("Nc1nccc(Oc2ccc(NC(=O)c3c[nH]cc(-c4ccc(F)cc4)c3=O)cc2F)c1Cl", "18.7 µM (active)"),
    ("Cc1cc(N2CCOCC2)cc2[nH]c(-c3c(NC[C@@H](O)c4cccc(Cl)c4)cc[nH]c3=O)nc12", "0.148 µM (active)"),
    ("O=C(CCCCCCC(=O)Nc1ccc([C@H]2O[C@@H](CSc3nc(-c4ccccc4)c(-c4ccccc4)o3)C[C@@H](c3ccc(CO)cc3)O2)cc1)NO", "14.8 µM (active)"),
    ("CN(C)Cc1c(C(=O)NCCOc2ccc(C(=O)NO)cc2)oc2ccccc12", "2.35 µM (active)"),
]

Quote Potency reported for CC1=C(CO)C(=O)O[C@@H]([C@@H](C)[C@H]2CC[C@H]3[C@@H]4C[C@H]5O[C@]56[C@@H](O)C=CC(=O)[C@]6(C)[C@@H]4CC[C@]23C)C1 please.
0.166 µM (active)

Quote Potency reported for COc1cccc2nc(-c3cccs3)nc(NN3C(=O)C=C(C)C3=O)c12 please.
0.418 µM (active)

* * *

# experiment: qHTS to identify inhibitors of the type 1 interferon - major histocompatibility complex class I in skeletal muscle: primary screen against the NCATS Mechanism Interrogation Plate v5.0 (MIPE) Libary (AID 1347411); note: nearly all actives have a fitted effect of over 65% in size
# conditionSummary: iHSKM cells + IFN-b, HiBiT-tagged MHC-I luminescence, 24 h; series mostly up to 45.8 µM
Inconclusive results are not listed. Calls of active or inactive are those of the source. The call rests on the fitted dose curve; in most records, active means well fitted inhibition curve with a large enough effect; inconclusive means small, poorly fitted or top-dose-only effect; inactive means no such curve, though single readings can be large or run the other way.
The categories you may choose from are label 1 for active, label 0 for inactive

# compound, group
rows = [
    ("Cc1ccc(C(=O)Nc2cccc(C(F)(F)F)c2)cc1-c1ccc2nc(NCCN3CCOCC3)ncc2c1", "label 1"),
    ("Cc1ccc2nc(NC(=O)CSc3nc4c(c(=O)n3-c3ccccc3)SCC4)sc2c1", "label 0"),
    ("CC[C@@]1(O)C(=O)OCc2c1cc1n(c2=O)Cc2cc3cc(O)ccc3nc2-1", "label 1"),
]

What classification did CN(c1ncccc1CNc1nc(Nc2ccc3c(c2)CC(=O)N3)ncc1C(F)(F)F)S(C)(=O)=O end up with in this test?
label 1

What classification did CNC(=O)c1ccc(N2C(=S)N(c3cnc(C#N)c(C(F)(F)F)c3)C(=O)C23CCC3)cc1F end up with in this test?
label 0

What classification did CC(C)c1cc(-c2n[nH]c(=O)n2-c2ccc3c(ccn3C)c2)c(O)cc1O end up with in this test?
label 1

* * *

# experiment: qHTS profiling of the MIPE4 collection as inhibitors of Plasmodium falciparum (DD2) proliferation (AID 743345)
# conditionSummary: P. falciparum Dd2 in erythrocytes, SYBR Green DNA, 72 h; at 28.5 µM (top of the series) unless noted
Strictly below 10% in parasite growth remaining, % of DMSO control (lower = more inhibition): true (1). Otherwise: false (0).

Would you please look over these solved cases?
# compound, group
rows = [
    ("CC(C)C[C@H](NC(=O)CNC(=O)c1cc(Cl)ccc1Cl)B(O)O", "true (1)"),
    ("O=C(O)CCCc1c[nH]c2ccccc12", "false (0)"),
    ("COc1ccc(OC)c(-c2nnc3ccc(-c4ccc(OC)c(O[C@@H]5CCOC5)c4)nn23)c1", "true (1)"),
    ("CC1(C)CC(=O)c2c(C(F)(F)F)nn(-c3ccc(C(N)=O)c(NC4CCC(OC(=O)CN)CC4)c3)c2C1 (centres undefined)", "true (1)"),
    ("CCc1cc2c(cc1N1CCC(N3CCOCC3)CC1)C(C)(C)c1[nH]c3cc(C#N)ccc3c1C2=O", "true (1)"),
    ("COC(=O)C1=C(C)NC(C)=C(C(=O)OCCN2CCN(C(c3ccccc3)c3ccccc3)CC2)C1c1cccc([N+](=O)[O-])c1 (centres undefined)", "false (0)"),
    ("CC(C)(O)CCc1ccc(OCc2cc(-c3cccc(OC(F)F)c3)c3ncccc3c2)cc1", "false (0)"),
]

Consider the compound C1=CCOCc2cc(ccc2OCCN2CCCC2)Nc2nccc(n2)-c2cccc(c2)OCC1 . Is its parasite growth remaining, % of DMSO control (lower = more inhibition) strictly less than 10%?
true (1)
